Just for reference, paper PMC9667936 is where these values come from.

A collection of molecules and their measured ΔΔG to 1
- Study system: 14-3-3γ (Homo sapiens)
- Construct: made in house; host or cells: E. coli NiCo21 (DE3)
- Sequence (P61981 whole entry): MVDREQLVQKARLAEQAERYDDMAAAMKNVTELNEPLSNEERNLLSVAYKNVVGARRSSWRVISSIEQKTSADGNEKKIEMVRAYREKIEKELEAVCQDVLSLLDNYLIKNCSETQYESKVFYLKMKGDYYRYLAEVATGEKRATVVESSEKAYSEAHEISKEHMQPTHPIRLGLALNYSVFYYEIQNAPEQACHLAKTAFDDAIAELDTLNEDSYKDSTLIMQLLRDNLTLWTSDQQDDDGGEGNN
- Protocol notes: Fluorescence anisotropy (FA) binary binding study: 14-3-3 titrated to fluorescein-labelled peptide
- Assay context: Table S4; ΔG minus ΔG of 1, FA; replicate 3
Where a SMILES comes first, the peptide text is derived from it. [ ]: non-standard residue; d: D form. ξ: configuration not given here. Phe(4-NO2) = N[C@@H](Cc1ccc([N+](=O)[O-])cc1)C(=O)O; ξAla(4-thiazolyl) = NC(Cc1cscn1)C(=O)O; pS = N[C@@H](COP(=O)(O)O)C(=O)O; β3hS = N[C@@H](CO)CC(=O)O; Nva = CCC[C@H](N)C(=O)O; βAla = NCCC(=O)O
Parameter: ΔΔG to 1 (kcal/mol)

>  <Molecule>
CCC[C@H](NC(=O)[C@H](N)CCCCN)C(=O)N[C@@H](Cc1ccc([N+](=O)[O-])cc1)C(=O)N[C@@H](C)C(=O)N[C@@H](COP(=O)(O)O)C(=O)N[C@@H](Cc1ccc([N+](=O)[O-])cc1)C(=O)N[C@@H](CO)CC(=O)NCCC(=O)N[C@@H](Cc1ccc([N+](=O)[O-])cc1)C(=O)N[C@@H](CCCCN)C(N)=O [3a] (H-[dK][Nva][Phe(4-NO2)]A[pS][Phe(4-NO2)][β3hS][βAla][Phe(4-NO2)]K-NH2; N-terminus and C-terminus assumed)

>  <Study system>
14-3-3γ (Homo sapiens)

>  <Quantitative result>
0.0

$$$$
>  <Molecule>
CCC[C@H](NC(=O)[C@H](N)CCCCN)C(=O)N[C@@H](Cc1ccc([N+](=O)[O-])cc1)C(=O)NC(Cc1cscn1)C(=O)N[C@@H](COP(=O)(O)O)C(=O)N[C@@H](Cc1ccc(O)cc1)C(=O)N[C@@H](CO)CC(=O)NCCC(=O)N[C@@H](Cc1ccc([N+](=O)[O-])cc1)C(=O)N[C@@H](CCCCN)C(N)=O (stereo partly drawn) [4a] (H-[dK][Nva][Phe(4-NO2)][ξAla(4-thiazolyl)][pS]Y[β3hS][βAla][Phe(4-NO2)]K-NH2; N-terminus and C-terminus assumed)

>  <Study system>
14-3-3γ (Homo sapiens)

>  <Quantitative result>
-0.1

$$$$
